Reference source: ChEMBL document CHEMBL5257100

method description: Inhibition of JAK1/STAT1/STAT3 signaling pathway in human LX2 cells assessed as decrease in TGF-beta induced STAT3 phosphorylation level at 1 uM incubated for 24 hrs by Western blot analysis
Assay type: cell-based
Active and inactive are the calls of the source. The rule behind the calls is not given here.

line notation	inhibition
O=C(Nc1ccccc1NS(=O)(=O)c1cccc(C(F)(F)F)c1)c1cc(Cl)c(Cl)c(Cl)c1	Active
O=C(Nc1cc(Cl)c(Cl)c(Cl)c1)c1ccccc1NS(=O)(=O)c1cccc([N+](=O)[O-])c1	Active
O=C(Nc1ccccc1NS(=O)(=O)c1ccc([N+](=O)[O-])cc1)c1cc(Cl)c(Cl)c(Cl)c1	Active
O=C(Nc1ccccc1NS(=O)(=O)c1cccc([N+](=O)[O-])c1)c1cc(Cl)c(Cl)c(Cl)c1	Active
